Biological target: CDK5/GST-p25 (Homo sapiens)
Construct: The final construct, encoding for full-length human CDK5; made in house; host or cells: Sf21 insect cells (baculovirus co-infection)
Assay: Inhibition of CDK5/GST-p25 kinase activity (ELISA with time-resolved fluorescence readout)
Type: biochemical
Conditions: class symbols
Each entry below carries its reported IC50.

Would you please look over these solved cases?
{"COMPOUND": "O=C1Nc2ccc(Br)cc2C1c1nc(NCc2ccncc2)nc2nn(C3CCCC3)cc12 (stereo not drawn)", "IC50": "< 0.3 µM"}
{"COMPOUND": "O=C1Nc2cc(F)ccc2C1c1ncnc2c1cnn2C1CCCCC1 (stereo not drawn)", "IC50": "> 10 µM"}
{"COMPOUND": "O=C1Nc2ccc(Cl)cc2C1c1nc(NCc2ccncc2)nc2c1CCC2 (stereo not drawn)", "IC50": "> 10 µM"}

Specify IC50 for N#Cc1ccc2c(c1)C(c1nc(Nc3cccnc3)nc3nn(C4CCCC4)cc13)C(=O)N2 (stereo not drawn) and stop.
> 10 µM

For the compound N#Cc1ccc2c(c1)C(c1nc(N3CCCCC3)nc3nn(C4CCCC4)cc13)C(=O)N2 (stereo not drawn) , give its measured IC50 value.
> 10 µM

----------
List of melting point values.
Structures can show the parent of a compound that is named as a salt.

These solved cases illustrate the format of a correct answer.
{"MOLECULE": "CCOCCn1cc2c(C3C(=O)Nc4ccc(Br)cc43)nc(NCCN(C)C)nc2n1 (stereo not drawn)", "melting point": "247 to 251 °C"}
{"MOLECULE": "CCCn1cc2c(C3C(=O)Nc4ccc(Br)cc43)nc(NCCCN(C)C)nc2n1 (stereo not drawn)", "melting point": "286 to 290 °C"}
{"MOLECULE": "O=C1Nc2ccc(Cl)cc2C1c1ncnc2nn(C3CCCC3)cc12 (stereo not drawn)", "melting point": "290 to 292 °C"}

Provide measured melting point value, entry: O=C1Nc2ccc(C(F)(F)F)cc2C1c1nc(NCCc2ccccn2)nc2nn(C3CCCC3)cc12 (stereo not drawn)
> 300 °C

Return the recorded melting point value; entry: O=C1Nc2ccc(C(F)(F)F)cc2C1c1nc(Cl)nc2nn(C3CCCC3)cc12 (stereo not drawn)
> 300 °C

Answer with the recorded melting point of CCOCCn1cc2c(C3C(=O)Nc4ccc(Cl)cc43)nc(NCCCNC)nc2n1 (stereo not drawn) (as salt: hydrochloride) only.
275 to 277 °C

Specify measured melting point for CC(C)Nc1nc(C2C(=O)Nc3ccc(C(F)(F)F)cc32)c2cn(C3CCCC3)nc2n1 (stereo not drawn) .
299 to 301 °C

Using known records, supply melting point for CC(C)Cn1cc2c(C3C(=O)Nc4ccc(Cl)cc43)nc(Cl)nc2n1 (stereo not drawn)
284 °C (dec.)

Quote melting point reported for N#Cc1ccc2c(c1)C(c1nc(N(CCO)CCO)nc3nn(C4CCCC4)cc13)C(=O)N2 (stereo not drawn) please.
243 to 243.5 °C

Tell me measured melting point for CC(C)n1cc2c(C3C(=O)Nc4ccc(Cl)cc43)ncnc2n1 (stereo not drawn) please.
> 300 °C

Answer with the recorded melting point of O=C1Nc2ccccc2C1c1nc(NCc2cccnc2)nc2nn(C3CCCC3)cc12 (stereo not drawn) only.
216 to 218 °C

Using the record for CNc1nc(C2C(=O)Nc3ccccc32)c2cn(C3CCCC3)nc2n1 (stereo not drawn) , state its measured melting point.
> 300 °C

----------
Let's look at some compounds and their measured pIC50.
Biological target: CDK5/GST-p25 (Homo sapiens, UniProt Q00535)
Construct: The final construct, encoding for full-length human CDK5; made in house; host or cells: Sf21 insect cells (baculovirus co-infection)
Sequence (Q00535 whole entry): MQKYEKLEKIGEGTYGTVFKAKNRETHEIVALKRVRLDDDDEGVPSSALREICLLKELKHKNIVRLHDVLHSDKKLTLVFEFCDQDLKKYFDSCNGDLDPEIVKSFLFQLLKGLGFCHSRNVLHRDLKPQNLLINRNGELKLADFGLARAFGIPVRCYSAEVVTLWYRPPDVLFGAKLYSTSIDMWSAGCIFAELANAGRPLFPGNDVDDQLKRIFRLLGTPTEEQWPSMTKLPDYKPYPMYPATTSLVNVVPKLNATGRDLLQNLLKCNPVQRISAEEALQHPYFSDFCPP
Sequence (Q15078 108-307 partner limits assumed): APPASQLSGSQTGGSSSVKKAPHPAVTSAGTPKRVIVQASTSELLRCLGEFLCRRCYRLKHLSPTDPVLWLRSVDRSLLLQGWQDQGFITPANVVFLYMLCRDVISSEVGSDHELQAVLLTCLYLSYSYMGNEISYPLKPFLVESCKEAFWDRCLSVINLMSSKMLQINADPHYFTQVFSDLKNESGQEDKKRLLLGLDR
Assay: Inhibition of CDK5/GST-p25 kinase activity (ELISA with time-resolved fluorescence readout)
Assay type: biochemical
Conditions: class symbols
pIC50: −log10 of the molar value.

Some compounds with known pIC50 results, for comparison:
{"COMPOUND": "O=C1Nc2ccc(F)cc2C1c1nc(Cl)nc2c1CCC2 (stereo not shown)", "pIC50": "< 5.00"}
{"COMPOUND": "O=C1Nc2ccc(Cl)cc2C1c1nc(Cl)nc2c1CCC2 (stereo not shown)", "pIC50": "< 5.00"}

Look up and state reported pIC50 for O=C1Nc2ccc(Cl)cc2C1c1nc(NCCc2cccnc2)nc2nn(C3CCCC3)cc12 (stereo not shown)
5.52 to 6.52

Identify measured pIC50 associated with CCOCCNc1nc2c(c(C3C(=O)Nc4ccc(F)cc43)n1)CCC2 (stereo not shown)
< 5.00

Give me measured pIC50, please, for this compound: CC(C)Cn1cc2c(C3C(=O)Nc4ccc(Cl)cc43)nc(NCCCN3CCOCC3)nc2n1 (stereo not shown)
> 6.52

Could you please provide reported pIC50 for C=CCNc1nc(C2C(=O)Nc3ccc(Br)cc32)c2cn(CCC)nc2n1 (stereo not shown) ? Thanks!
> 6.52

----------
Biological target: CDK5/GST-p25 (Homo sapiens, UniProt Q00535)
Construct: The final construct, encoding for full-length human CDK5; made in house; host or cells: Sf21 insect cells (baculovirus co-infection)
Assay: Inhibition of CDK5/GST-p25 kinase activity (ELISA with time-resolved fluorescence readout)
Assay type: biochemical
Conditions: class symbols
REPORTED_METRIC: IC50

The cases that follow already have their IC50 on record.
{"COMPOUND": "COCCn1cc2c(C3C(=O)Nc4ccc(Br)cc43)nc(NCc3cccnc3)nc2n1 (stereo not shown)", "TARGET_UNDER_TEST": "CDK5/GST-p25 (Homo sapiens, UniProt Q00535)", "MEASUREMENT": "< 0.3 µM"}
{"COMPOUND": "O=C1Nc2ccc([N+](=O)[O-])cc2C1c1ncnc2nn(C3CCCCC3)cc12 (stereo not shown)", "TARGET_UNDER_TEST": "CDK5/GST-p25 (Homo sapiens, UniProt Q00535)", "MEASUREMENT": "< 0.3 µM"}
{"COMPOUND": "O=C1Nc2c(cc([N+](=O)[O-])cc2[N+](=O)[O-])C1c1ncnc2nn(C3CCCC3)cc12 (stereo not shown)", "TARGET_UNDER_TEST": "CDK5/GST-p25 (Homo sapiens, UniProt Q00535)", "MEASUREMENT": "0.3 to 3 µM"}
{"COMPOUND": "CCCn1cc2c(C3C(=O)Nc4ccc(F)cc43)ncnc2n1 (stereo not shown)", "TARGET_UNDER_TEST": "CDK5/GST-p25 (Homo sapiens, UniProt Q00535)", "MEASUREMENT": "< 0.3 µM"}
{"COMPOUND": "O=C1Nc2ccccc2C1c1nc(NCc2ccncc2)nc2nn(C3CCCC3)cc12 (stereo not shown)", "TARGET_UNDER_TEST": "CDK5/GST-p25 (Homo sapiens, UniProt Q00535)", "MEASUREMENT": "0.3 to 3 µM"}
{"COMPOUND": "COCCn1cc2c(C3C(=O)Nc4ccc(Br)cc43)nc(Cl)nc2n1 (stereo not shown)", "TARGET_UNDER_TEST": "CDK5/GST-p25 (Homo sapiens, UniProt Q00535)", "MEASUREMENT": "> 10 µM"}

With CDK5/GST-p25 (Homo sapiens, UniProt Q00535) as the test system, provide measured IC50 for this compound: COCCNc1nc(C2C(=O)Nc3ccc(C#N)cc32)c2cn(C3CCCC3)nc2n1 (stereo not shown)
< 0.3 µM

----------
compounds and their reported pIC50
Target: CDK5/GST-p25 (Homo sapiens, UniProt Q00535)
Construct: The final construct, encoding for full-length human CDK5; made in house; host or cells: Sf21 insect cells (baculovirus co-infection)
Experiment: Inhibition of CDK5/GST-p25 kinase activity (ELISA with time-resolved fluorescence readout)
Type: biochemical
Conditions: class symbols
pIC50: −log10 of the molar value.

{"COMPOUND": "N#Cc1ccc2c(c1)C(c1nc(N3CCN(CCc4ccccn4)CC3)nc3nn(C4CCCC4)cc13)C(=O)N2 (stereo not drawn)", "pIC50": "< 5.00"}
{"COMPOUND": "O=C1Nc2ccc(C(F)(F)F)cc2C1c1ncnc2nn(C3CCCCC3)cc12 (stereo not drawn)", "pIC50": "< 5.00"}

Specify measured pIC50 for CCCn1cc2c(C3C(=O)Nc4ccc(Br)cc43)nc(NC[C@@H](C)N)nc2n1 (stereo partly drawn) .
5.52 to 6.52

Consider the compound N#Cc1ccc2c(c1)C(c1nc(N3CCNCC3)nc3c1CCC3)C(=O)N2 (stereo not drawn) and give its recorded pIC50.
> 6.52

Output pIC50 of O=C1Nc2ccc(F)c(F)c2C1c1ncnc2nn(C3CCCC3)cc12 (stereo not drawn)
5.52 to 6.52

Report pIC50, nothing else, for this compound: N#Cc1ccc2c(c1)C(c1nc(NCCc3ccccn3)nc3c1CCC3)C(=O)N2 (stereo not drawn)
5.52 to 6.52
